Field: Morningglory plant response rating. Provide a value for each of the molecules that follow.
Tested on: morningglory
Assay: Test B pre/postemergence morningglory
Format: in vivo, Ipomoea hederacea
Conditions: Preemergence, Rate 250 g/ha; scale 0 to 10, 0 is no effect, 10 is complete control
No unit in the answer, please; the number alone is enough.

Exam item: Given CC(C)N(C(=O)n1oc(=O)n(CC#N)c1=O)c1ccc(F)cc1 [Compound 395] , state its recorded Morningglory plant response rating.
Marked response: 0

Exam item: Given the molecule CCOP(=O)(Cn1c(=O)on(C(=O)N(c2ccccc2)C(C)C)c1=O)OCC [Compound 447] , what is its reported Morningglory plant response rating?
Marked response: 0

Exam item: Query: Morningglory plant response rating; subject: COC(OC)C(C)n1c(=O)on(C(=O)N(c2ccc(F)cc2)C(C)C)c1=O (stereo not shown) [Compound 471]
Marked response: 0

Exam item: Any idea what Morningglory plant response rating was measured for CC(C)N(C(=O)n1oc(=O)n(COC(=O)C(C)(C)C)c1=O)c1ccc(F)cc1 [Compound 462] ?
Marked response: 0

Exam item: Entry Cc1ccccc1-n1c(=O)on(C(=O)N(c2cccc(F)c2F)C(C)C)c1=O [Compound 171] has what Morningglory plant response rating?
Marked response: 0

Exam item: Using the record for CCc1nc(C)c(C(C)n2c(=O)on(C(=O)N(c3ccc(F)cc3)C(C)C)c2=O)s1 (stereo not shown) [Compound 449] , report its Morningglory plant response rating.
Marked response: 0

Exam item: For the molecule shown here, Cc1ccccc1-n1c(=O)on(C(=O)N(c2ccc(F)cc2Cl)C(C)C)c1=O [Compound 186] , give the reported Morningglory plant response rating.
Marked response: 0

Exam item: Bench note: what Morningglory plant response rating did Cc1nc(C)c(-n2c(=O)on(C(=O)N(c3ccc(F)cc3)C(C)C)c2=O)s1 [Compound 198] show?
Marked response: 0

Exam item: Entry under review: C=CCn1c(=O)on(C(=O)N(c2ccc(F)cc2F)C2CC2)c1=O [Compound 127] . Reported Morningglory plant response rating?
Marked response: 0

Exam item: Can you share its Morningglory plant response rating? I mean this molecule: Cc1noc(C)c1-n1c(=O)on(C(=O)N(c2ccc(F)cc2F)C(C)C)c1=O [Compound 156]
Marked response: 0

###

System: crabgrass
Assay: Test B pre/postemergence crabgrass
Assay type: in vivo, Digitaria sanguinalis
Details: Preemergence, Rate 125 g/ha; scale of 0 to 10 where 0 is no effect and 10 is complete control
Answer each item with its documented Plant response rating, Crabgrass.
Answer field: number only, no words.

Exam item: Which Plant response rating, Crabgrass value belongs to `CC(C)N(C(=O)n1oc(=O)n(C[C@H](C)Cl)c1=O)c1ccc(F)cc1F` ?
Marked response: 10

Exam item: Recorded Plant response rating, Crabgrass for `CC(C)N(C(=O)n1oc(=O)n(CC#N)c1=O)c1ccc(F)cc1` , please?
Marked response: 0

Exam item: Quick one: Plant response rating, Crabgrass for `CCOP(=O)(Cn1c(=O)on(C(=O)N(c2ccccc2)C(C)C)c1=O)OCC` ?
Marked response: 3

Exam item: Returns the measured Plant response rating, Crabgrass for the input molecule. Input: `CC(C)N(C(=O)n1oc(=O)n(CO)c1=O)c1ccc(Cl)cc1`
Marked response: 0

Exam item: Quick one: Plant response rating, Crabgrass of `CC(C)N(C(=O)n1oc(=O)n(CCC#N)c1=O)c1ccc(Cl)cc1` ?
Marked response: 5

Exam item: Which Plant response rating, Crabgrass is listed for `CC(C)Cn1c(=O)on(C(=O)N(c2ccccc2)C(C)C)c1=O` ?
Marked response: 9

Exam item: Any idea what Plant response rating, Crabgrass was measured for `CC(C)N(C(=O)n1oc(=O)n(COC(=O)C(C)(C)C)c1=O)c1ccc(F)cc1` ?
Marked response: 0
